Form field: binding signal fold over 6E7 parental (one value per entry).
Biological target: T1, human TREM2 (human, UniProt Q9NZC2 19-174, limits assumed)
T1 sequence: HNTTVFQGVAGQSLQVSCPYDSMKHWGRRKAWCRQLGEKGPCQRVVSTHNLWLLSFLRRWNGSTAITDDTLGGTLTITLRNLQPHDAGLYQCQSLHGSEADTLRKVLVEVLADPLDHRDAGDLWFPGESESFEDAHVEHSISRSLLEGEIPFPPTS
Test: yeast-displayed Fab FACS, 2nd screen 10 nM
readout kind: binding signal fold over 6E7 parental (fold)

[
  {
    "binder": "V5 (Fab, V domains shown) VH: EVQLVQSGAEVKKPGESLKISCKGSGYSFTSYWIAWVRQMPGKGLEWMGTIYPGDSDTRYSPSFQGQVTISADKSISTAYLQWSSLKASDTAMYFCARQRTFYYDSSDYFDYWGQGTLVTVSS VL: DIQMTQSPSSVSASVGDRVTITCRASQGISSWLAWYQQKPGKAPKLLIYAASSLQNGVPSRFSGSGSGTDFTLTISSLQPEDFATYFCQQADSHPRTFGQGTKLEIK",
    "readout value": 2.84
  },
  {
    "binder": "V37 (Fab, V domains shown) VH: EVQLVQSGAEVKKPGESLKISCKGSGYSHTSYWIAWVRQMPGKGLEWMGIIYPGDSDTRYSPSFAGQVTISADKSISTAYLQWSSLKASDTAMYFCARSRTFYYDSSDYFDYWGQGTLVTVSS VL: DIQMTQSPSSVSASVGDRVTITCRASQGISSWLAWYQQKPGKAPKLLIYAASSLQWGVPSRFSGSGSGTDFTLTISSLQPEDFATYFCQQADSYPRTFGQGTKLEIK",
    "readout value": 3.49
  },
  {
    "binder": "V53 (Fab, V domains shown) VH: EVQLVQSGAEVKKPGESLKISCKGSGYSFTSYWIAWVRQMPGKGLEWMGIIYPGDSDTRYSPHFQGQVTISADKSISTAYLQWSSLKASDTAMYFCARQRTFYYDSSDYFDYWGQGTLVTVSS VL: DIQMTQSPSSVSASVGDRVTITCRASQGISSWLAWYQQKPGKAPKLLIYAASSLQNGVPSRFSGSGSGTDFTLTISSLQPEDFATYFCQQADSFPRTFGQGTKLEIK",
    "readout value": 1.17
  }
]

These data points were gathered from patent US20220204611A1.
